Target Of Assay: T1, Cre recombinase monomer with W315M mutation
T1 chain: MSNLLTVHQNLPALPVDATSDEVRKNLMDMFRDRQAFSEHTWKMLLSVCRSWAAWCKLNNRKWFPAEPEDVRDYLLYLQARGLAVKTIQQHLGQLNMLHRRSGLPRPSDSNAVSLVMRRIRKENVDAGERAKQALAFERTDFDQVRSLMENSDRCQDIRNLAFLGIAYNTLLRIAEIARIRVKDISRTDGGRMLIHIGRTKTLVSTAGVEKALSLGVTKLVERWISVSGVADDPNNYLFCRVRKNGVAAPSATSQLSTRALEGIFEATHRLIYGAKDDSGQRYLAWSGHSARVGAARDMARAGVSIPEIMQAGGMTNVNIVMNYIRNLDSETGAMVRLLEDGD
Property Name: Median dimer activity (recombination on loxP) (%)
State just the number; it will be interpreted in %.

Guide cases for Median dimer activity (recombination on loxP), answers given:
# Median dimer activity (recombination on loxP) lookup, item Cre recombinase monomer with K201V mutation (protein) MSNLLTVHQNLPALPVDATSDEVRKNLMDMFRDRQAFSEHTWKMLLSVCRSWAAWCKLNNRKWFPAEPEDVRDYLLYLQARGLAVKTIQQHLGQLNMLHRRSGLPRPSDSNAVSLVMRRIRKENVDAGERAKQALAFERTDFDQVRSLMENSDRCQDIRNLAFLGIAYNTLLRIAEIARIRVKDISRTDGGRMLIHIGRTVTLVSTAGVEKALSLGVTKLVERWISVSGVADDPNNYLFCRVRKNGVAAPSATSQLSTRALEGIFEATHRLIYGAKDDSGQRYLAWSGHSARVGAARDMARAGVSIPEIMQAGGWTNVNIVMNYIRNLDSETGAMVRLLEDGD
64

Would you kindly share the measured Median dimer activity (recombination on loxP) for Cre recombinase monomer with Q311R mutation (protein) MSNLLTVHQNLPALPVDATSDEVRKNLMDMFRDRQAFSEHTWKMLLSVCRSWAAWCKLNNRKWFPAEPEDVRDYLLYLQARGLAVKTIQQHLGQLNMLHRRSGLPRPSDSNAVSLVMRRIRKENVDAGERAKQALAFERTDFDQVRSLMENSDRCQDIRNLAFLGIAYNTLLRIAEIARIRVKDISRTDGGRMLIHIGRTKTLVSTAGVEKALSLGVTKLVERWISVSGVADDPNNYLFCRVRKNGVAAPSATSQLSTRALEGIFEATHRLIYGAKDDSGQRYLAWSGHSARVGAARDMARAGVSIPEIMRAGGWTNVNIVMNYIRNLDSETGAMVRLLEDGD ?
95

For the protein shown here, Cre recombinase monomer with H289K mutation (protein) MSNLLTVHQNLPALPVDATSDEVRKNLMDMFRDRQAFSEHTWKMLLSVCRSWAAWCKLNNRKWFPAEPEDVRDYLLYLQARGLAVKTIQQHLGQLNMLHRRSGLPRPSDSNAVSLVMRRIRKENVDAGERAKQALAFERTDFDQVRSLMENSDRCQDIRNLAFLGIAYNTLLRIAEIARIRVKDISRTDGGRMLIHIGRTKTLVSTAGVEKALSLGVTKLVERWISVSGVADDPNNYLFCRVRKNGVAAPSATSQLSTRALEGIFEATHRLIYGAKDDSGQRYLAWSGKSARVGAARDMARAGVSIPEIMQAGGWTNVNIVMNYIRNLDSETGAMVRLLEDGD , give the reported Median dimer activity (recombination on loxP).
74

Record request: Median dimer activity (recombination on loxP) value, item Cre recombinase monomer with R173L mutation (protein) MSNLLTVHQNLPALPVDATSDEVRKNLMDMFRDRQAFSEHTWKMLLSVCRSWAAWCKLNNRKWFPAEPEDVRDYLLYLQARGLAVKTIQQHLGQLNMLHRRSGLPRPSDSNAVSLVMRRIRKENVDAGERAKQALAFERTDFDQVRSLMENSDRCQDIRNLAFLGIAYNTLLLIAEIARIRVKDISRTDGGRMLIHIGRTKTLVSTAGVEKALSLGVTKLVERWISVSGVADDPNNYLFCRVRKNGVAAPSATSQLSTRALEGIFEATHRLIYGAKDDSGQRYLAWSGHSARVGAARDMARAGVSIPEIMQAGGWTNVNIVMNYIRNLDSETGAMVRLLEDGD
63

With those in mind, consider the next protein.
Would you kindly share the measured Median dimer activity (recombination on loxP) for Cre recombinase monomer with K201W mutation (protein) MSNLLTVHQNLPALPVDATSDEVRKNLMDMFRDRQAFSEHTWKMLLSVCRSWAAWCKLNNRKWFPAEPEDVRDYLLYLQARGLAVKTIQQHLGQLNMLHRRSGLPRPSDSNAVSLVMRRIRKENVDAGERAKQALAFERTDFDQVRSLMENSDRCQDIRNLAFLGIAYNTLLRIAEIARIRVKDISRTDGGRMLIHIGRTWTLVSTAGVEKALSLGVTKLVERWISVSGVADDPNNYLFCRVRKNGVAAPSATSQLSTRALEGIFEATHRLIYGAKDDSGQRYLAWSGHSARVGAARDMARAGVSIPEIMQAGGWTNVNIVMNYIRNLDSETGAMVRLLEDGD ?
49
